- study_conditions: 25 °C
Please enter MET where solubility is greater than or equal to 60 mM, and NOT MET where it is lower.

Some solved entries appear below for comparison.
[[record]]
smiles_str = "CCOC(=O)c1ccc(O)cc1"
assigned_label = "NOT MET"

[[record]]
smiles_str = "CCC(C)CC"
assigned_label = "NOT MET"

[[record]]
smiles_str = "C[C@]12CCC(=O)C=C1CC[C@@H]1[C@@H]2CC[C@@]2(C)[C@H]1CC[C@]2(C)O"
assigned_label = "NOT MET"

[[record]]
smiles_str = "N[C@@H](Cc1c[nH]c2ccccc12)C(=O)O"
assigned_label = "MET"

[[record]]
smiles_str = "C[C@]12CC[C@H]3[C@@H](CCC4=CC(=O)CC[C@@H]43)[C@@H]1CC[C@@H]2O"
assigned_label = "NOT MET"

[[record]]
smiles_str = "COc1cc(Cl)c(OC)cc1Cl"
assigned_label = "NOT MET"

[[record]]
smiles_str = "Oc1cccc(O)c1O"
assigned_label = "MET"

[[record]]
smiles_str = "O=C(O)c1cccnc1C(=O)O"
assigned_label = "MET"

[[record]]
smiles_str = "Cn1cnc2c1c(=O)[nH]c(=O)n2C"
assigned_label = "NOT MET"

[[record]]
smiles_str = "CCCCC(=O)O"
assigned_label = "MET"


For this compound, is measured solubility 60 mM or higher? "O=Cc1ccccc1"
MET

// query: "Clc1ccc(C(c2ccc(Cl)cc2)C(Cl)(Cl)Cl)cc1"
NOT MET

// query: "Nc1ccccc1"
MET

// query: "CCN(CC)c1c([N+](=O)[O-])cc(C(F)(F)F)c(N)c1[N+](=O)[O-]"
NOT MET

====

- study_conditions: 25 °C
Please enter Satisfied where solubility is greater than or equal to 30 mM, and Not satisfied where it is lower.

[[record]]
molecule = "Nc1ccc2ccccc2c1"
assigned_label = "Not satisfied"

[[record]]
molecule = "Cc1cccc(O)c1"
assigned_label = "Satisfied"

[[record]]
molecule = "O=C(O)c1cccc([N+](=O)[O-])c1"
assigned_label = "Not satisfied"

[[record]]
molecule = "OC(O)C(Cl)(Cl)Cl"
assigned_label = "Satisfied"

[[record]]
molecule = "CCCCCC(=O)O"
assigned_label = "Satisfied"


For this molecule, is measured solubility 30 mM or higher? "Oc1ncnc2[nH]ncc12"
Not satisfied

// query: ClC1(Cl)C2(Cl)C3(Cl)C4(Cl)C(Cl)(Cl)C5(Cl)C3(Cl)C1(Cl)C5(Cl)C24Cl (centres undefined)
Not satisfied

// query: "CCCCCCCO"
Not satisfied

// query: "O=C(Nc1cccc(Cl)c1)OCC#CCCl"
Not satisfied

// query: "CC[N+](=O)[O-]"
Satisfied

// query: "CC(C)OC(=O)Nc1ccccc1"
Not satisfied

====

- study_conditions: 30 °C
measured_property: solubility (mM)
Could you give me the number in mM? Just the number is fine.

[[record]]
compound = "CCOC(=O)c1ccc(N)cc1"
measured_property = "solubility"
quantitative_readout = 7.93

[[record]]
compound = "Nc1ccc(C(=O)O)cc1"
measured_property = "solubility"
quantitative_readout = 44.6


Can you share its solubility? I mean this compound: CCC1(c2ccccc2)CCC(=O)NC1=O (stereo not drawn)
4.6

====

- study_conditions: 22 °C
measured_property: solubility (mM)
Could you give me the number in mM? Just the number is fine.

[[record]]
compound = "N[C@@H](Cc1ccccc1)C(=O)O (racemic)"
units_symbol = "mM"
quantitative_readout = 134


Turning to the following compound.
Can you share its solubility? I mean this compound: "O=[N+]([O-])C(Br)(CO)CO"
1250

====

- study_conditions: 24 °C
Please enter rule met where solubility is greater than or equal to 10000 µM, and rule not met where it is lower.

For this compound, is measured solubility 10000 µM or higher? "Cc1ccc2cc3c(ccc4ccccc43)cc2c1"
rule not met

====

# solubility per record follows
Could you give me the number in mM? Just the number is fine.

Completed entries (count: 2):
[[record]]
molecule = "O=C1OC(c2ccc(O)cc2)(c2ccc(O)cc2)c2ccccc21"
units_symbol = "mM"
quantitative_readout = 1.26

[[record]]
molecule = "CC(C)(C)NCC(O)c1ccc(O)c(CO)c1 (stereo not drawn)"
units_symbol = "mM"
quantitative_readout = 59.3


Turning to the following molecule.
Can you share its solubility? I mean this molecule: NC(=O)NC1NC(=O)NC1=O (stereo not drawn)
33.3

====

- study_conditions: 20 °C
measured_property: solubility (mM)
Could you give me the number in mM? Just the number is fine.

Completed entries (count: 8):
[[record]]
compound = "CCCCCCC(C)=O"
quantitative_readout = 7.02

[[record]]
compound = "O=[N+]([O-])c1ccc(Cl)c(Cl)c1"
quantitative_readout = 0.63

[[record]]
compound = "O=[N+]([O-])c1ccc(Cl)cc1"
quantitative_readout = 1.43

[[record]]
compound = "BrCCCBr"
quantitative_readout = 8.42

[[record]]
compound = "O=[N+]([O-])c1cccc(Cl)c1"
quantitative_readout = 1.73

[[record]]
compound = "S=C=S"
quantitative_readout = 15.5

[[record]]
compound = "c1ccc(Nc2ccccc2)cc1"
quantitative_readout = 0.313

[[record]]
compound = "CCOCCOC(C)=O"
quantitative_readout = 1870


Can you share its solubility? I mean this compound: C#CC(C)OC(=O)Nc1cccc(Cl)c1 (stereo unspecified)
2.41

// query: "CCCBr"
19.9

// query: "CCNc1nc(NC(C)(C)C)nc(SC)n1"
0.104

// query: "O=[N+]([O-])c1cccc(Cl)c1Cl"
0.325

// query: "CC1(C)C(=O)N(Cl)C(=O)N1Cl"
2.54

// query: "Nc1nc(N)nc(N)n1"
25.6

// query: "CNC(=O)Oc1cc(C(C)(C)C)cc(C(C)(C)C)c1"
0.057

// query: "CC(=O)OC(C)=O"
1180

// query: "CCOP(=S)(OCC)SCC(=O)NC(C)C"
8.76

// query: "C#C"
46.1

// query: "Cc1cc(O)cc(C)c1Cl"
1.6

// query: "CC(C)Br"
24.6

// query: "CCCCC(C)=O"
175

====

- study_conditions: 25 °C
# solubility per record follows
Could you give me the number in µM? Just the number is fine.

Completed entries (count: 3):
[[record]]
compound = "C1=CCCCC1"
quantitative_readout = 2590

[[record]]
compound = "Cc1ccc(O)cc1"
quantitative_readout = 199000

[[record]]
compound = "O=C(O)c1ccccc1C(=O)O"
quantitative_readout = 42100


Can you share its solubility? I mean this compound: "CCCCCCCCCCCCCCCCO"
0.0969

// query: "CCNC(=O)CSP(=S)(OC)OC"
34900

// query: "O=Cc1ccco1"
801000

// query: "CCC1(CCC(C)C)C(=O)NC(=O)NC1=O"
2670

====

- study_conditions: 24 °C
# solubility per record follows
Could you give me the number in mM? Just the number is fine.

Completed entries (count: 3):
[[record]]
molecule = "CCOP(=S)(OCC)Oc1nc(Cl)c(Cl)cc1Cl"
units_symbol = "mM"
quantitative_readout = 0.00319

[[record]]
molecule = "CC[C@H](C)[C@H](N)C(=O)O (racemic)"
units_symbol = "mM"
quantitative_readout = 262

[[record]]
molecule = "COP(=S)(OC)SCC(=O)N(C)C=O"
units_symbol = "mM"
quantitative_readout = 10.1


Turning to the following molecule.
Can you share its solubility? I mean this molecule: "CN1CCN(CCCN2c3ccccc3Sc3ccc(Cl)cc32)CC1"
0.04

====

- study_conditions: 25 °C
Please enter yes (1) where solubility is greater than or equal to 600 µM, and no (0) where it is lower.

[[record]]
compound = "CCNc1nc(NC(C)C)nc(SC)n1"
assigned_label = "yes (1)"

[[record]]
compound = "CCCCCCCCC=O"
assigned_label = "yes (1)"


Now, please, on to the next compound.
For this compound, is measured solubility 600 µM or higher? "CCCC(C)(COC(N)=O)COC(N)=O"
yes (1)

====

- study_conditions: 25 °C
Please enter true (1) where solubility is greater than or equal to 500 µM, and false (0) where it is lower.

[[record]]
molecule = "c1ccc(-c2ccccc2)cc1"
assigned_label = "false (0)"

[[record]]
molecule = "ClC(Cl)=C(c1ccc(Cl)cc1)c1ccc(Cl)cc1"
assigned_label = "false (0)"

[[record]]
molecule = "Clc1ccc(Cl)cc1"
assigned_label = "true (1)"

[[record]]
molecule = "CCCCc1ccccc1"
assigned_label = "false (0)"

[[record]]
molecule = "CC(C)C[C@H](N)C(=O)O"
assigned_label = "true (1)"


For this molecule, is measured solubility 500 µM or higher? CC12CCC(CC1=O)C2(C)C (stereo not drawn)
true (1)

// query: "CC(C)(C)C"
false (0)

// query: "Cn1c(=O)c2[nH]cnc2n(C)c1=O"
true (1)
